Ref: patent US9850251B2

Measured CC50 at 5 days, listed per entry.
Experiment: RSV long CPE assay (cytopathic effect assay), CC50 toxicity in vitro
Format: cell-based
Details: human, Hep2 cells, CCK-8 readout, top concentration 100 μM

Example compounds with recorded CC50 at 5 days:
COMPOUND	CC50 at 5 days
CC(C)OC(=O)N1CC2(C1)C(=O)N(Cc1nc3c(n1CCCC(F)(F)F)CCCC3)c1ccc(Cl)cc12 [Embodiment 80]	> 100 µM
CCOC(=O)N1CC2(C1)C(=O)N(Cc1nc3c(n1CCCC(F)(F)F)CCCC3C)c1ccccc12 (stereo not shown) [Embodiment 110]	> 100 µM
CS(=O)(=O)N1CC2(C1)C(=O)N(Cc1nc3c(n1CCCC(F)(F)F)CCC3)c1ccccc12 [Embodiment 106]	> 100 µM
CCC(F)(F)Cn1c(CN2C(=O)C3(CN(C(=O)OC(C)C)C3)c3ccccc32)nc2c1CCCC2 [Embodiment 67]	> 100 µM
CC(C)C(=O)N1CC2(C1)C(=O)N(Cc1nc3c(n1CCCC(F)(F)F)CCCC3)c1ccccc12 [Embodiment 95]	> 100 µM

Q: Dear colleague, I am looking for the recorded CC50 at 5 days of the following compound: CC(C)OC(=O)N1CC2(C1)C(=O)N(Cc1nc3c(n1CCCC(F)(F)F)C(O)CCC3)c1ccccc12 (stereo not shown) [Embodiment 109]
Result: > 100 µM

Q: Please give the result for O=C1N(Cc2nc3c(n2CCCCO)CCCC3)c2ccccc2C12CC2 [Embodiment 63] too.
Result: > 100 µM
